assay: Cytotoxicity against human KBv200 cells assessed as growth inhibition after 72 hrs by MTT assay; assay type: functional, cell-based; settings: KBv200, 72 h
Threshold 20 µM: IC50 strictly smaller gives Satisfied, otherwise Not satisfied.

Does this molecule meet the criterion IC50 < 20 µM? "CC(=O)/C=C/C[C@@H](C)[C@@H]1CC[C@]2(C)C3=C(CC[C@@]12C)[C@@]1(C)CC[C@H](O)C(C)(C)[C@@H]1CC3=O"
Not satisfied

Does this molecule meet the criterion IC50 < 20 µM? "C/C1=C\[C@@H]2[C@H](C[C@@H](O)/C(C)=C/[C@H]3[C@@H](OC(=O)c4ccccc4)[C@@H](C)C[C@]3(O)C1=O)C2(C)C"
Not satisfied

Does this molecule meet the criterion IC50 < 20 µM? "C/C1=C\[C@@H]2[C@H](CC[C@@]3(C)O[C@@H]3[C@H]3[C@@H](O)[C@@H](C)C[C@]3(OC(=O)c3ccccc3)C1=O)C2(C)C"
Not satisfied

Does this molecule meet the criterion IC50 < 20 µM? "CC(=O)O[C@]12C[C@H](C)[C@H](O)[C@@H]1[C@@H](O)/C(C)=C/C[C@H]1[C@@H](/C=C(\C)C2=O)C1(C)C"
Not satisfied

Does this molecule meet the criterion IC50 < 20 µM? "C[C@H]1C[C@]2(OC(=O)c3ccccc3)C(=O)[C@@]3(C)[C@@H]4[C@@H](O)C(C)(C)[C@H]4CC[C@@]3(C)[C@H](O)[C@H]2[C@H]1O"
Not satisfied

Does this molecule meet the criterion IC50 < 20 µM? "CC1(C)CC[C@]2(C)CC(=O)[C@]3(C)C4=C(CC[C@@]3(C)[C@@H]2C1)[C@@]1(C)CC[C@H](O)C(C)(C)[C@@H]1CC4=O"
Satisfied

Does this molecule meet the criterion IC50 < 20 µM? CC1=C2C=C3CC[C@@H]4C(C)(C)[C@@H](O)CC[C@@]4(C)[C@@H]3C[C@H]2OC1=O [HELIOSCOPINOLIDE B]
Not satisfied

Does this molecule meet the criterion IC50 < 20 µM? "C[C@H]1C[C@]2(O)C(=O)[C@@]3(C)[C@H](OC(=O)c4ccccc4)[C@@H]4[C@H](CC[C@@]3(C)[C@H](O)[C@H]2[C@H]1O)C4(C)C"
Not satisfied

Does this molecule meet the criterion IC50 < 20 µM? "C[C@@H]1C[C@]2(O)C(=O)[C@@]3(C)[C@H](OC(=O)c4ccccc4)[C@@H]4[C@H](CC[C@@]3(C)[C@H](O)[C@H]2[C@H]1O)C4(C)C"
Not satisfied

Does this molecule meet the criterion IC50 < 20 µM? "C[C@H]1C[C@]2(OC(=O)/C=C/c3ccccc3)C(=O)/C(CO)=C/[C@@H]3[C@H](CC[C@@]4(C)O[C@H]4[C@H]2[C@H]1O)C3(C)C"
Not satisfied

Does this molecule meet the criterion IC50 < 20 µM? "C/C1=C\[C@@H]2[C@H](CC[C@@]3(C)O[C@@H]3[C@H]3[C@@H](O)[C@@H](C)C[C@]3(OC(=O)/C=C/c3ccccc3)C1=O)C2(C)C"
Satisfied

Does this molecule meet the criterion IC50 < 20 µM? "C=C1CC[C@H]2[C@@H]([C@@H]3[C@@H]1C1=C(C[C@H](C)C1=O)[C@@H](O)[C@@]3(C)O)C2(C)C"
Not satisfied

Does this molecule meet the criterion IC50 < 20 µM? "CC(=O)[C@@H]1CC[C@]2(C)C3=C(CC[C@@]12C)[C@@]1(C)CC[C@H](O)C(C)(C)[C@@H]1CC3=O"
Not satisfied

Does this molecule meet the criterion IC50 < 20 µM? "C/C1=C\[C@@H]2[C@H](C[C@@H](O)[C@@]3(C)O[C@@H]3[C@H]3[C@@H](OC(=O)c4ccccc4)[C@@H](C)C[C@]3(O)C1=O)C2(C)C"
Not satisfied

Does this molecule meet the criterion IC50 < 20 µM? "CC(=O)O[C@H]1C(=O)[C@@]2(C)[C@H]([C@H](OC(=O)c3ccccc3)[C@]3(O)C[C@H](OC(=O)[C@H](O)[C@@H](NC(=O)c4ccccc4)c4ccccc4)C(C)=C1C3(C)C)[C@]1(OC(C)=O)CO[C@@H]1C[C@@H]2O"
Satisfied

Does this molecule meet the criterion IC50 < 20 µM? "C/C1=C/C[C@H]2[C@@H](/C=C(\C)C(=O)[C@@]3(OC(=O)c4ccccc4)C[C@H](C)[C@H](O)[C@@H]3[C@H]1O)C2(C)C"
Not satisfied

Does this molecule meet the criterion IC50 < 20 µM? "C[C@H]1C[C@]2(OC(=O)/C=C/c3ccccc3)C(=O)[C@@]3(C)[C@@H]4[C@@H](O)C(C)(C)[C@H]4CC[C@@]3(C)[C@H](O)[C@H]2[C@H]1O"
Satisfied
